System: human FXR (NR1H4) (Homo sapiens (Human), UniProt Q96RI1)
Sequence (Q96RI1 whole entry, the tested form may be a part): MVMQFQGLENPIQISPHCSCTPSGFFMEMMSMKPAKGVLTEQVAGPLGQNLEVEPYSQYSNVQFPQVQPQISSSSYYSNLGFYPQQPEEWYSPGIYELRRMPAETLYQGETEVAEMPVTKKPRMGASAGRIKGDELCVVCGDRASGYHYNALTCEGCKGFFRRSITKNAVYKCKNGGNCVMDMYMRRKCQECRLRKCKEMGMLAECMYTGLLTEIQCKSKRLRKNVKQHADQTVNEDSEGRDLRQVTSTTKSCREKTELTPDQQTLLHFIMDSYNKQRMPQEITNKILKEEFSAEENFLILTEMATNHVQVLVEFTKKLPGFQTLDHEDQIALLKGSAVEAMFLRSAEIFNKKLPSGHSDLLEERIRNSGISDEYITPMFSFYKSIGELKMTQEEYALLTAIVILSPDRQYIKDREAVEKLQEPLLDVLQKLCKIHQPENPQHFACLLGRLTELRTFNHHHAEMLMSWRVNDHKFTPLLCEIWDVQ
Run Description: Human FXR (NR1H4) Assay (Gal4 promoter driven luciferase reporter, Indigo Bioscience kit)
Condition Info: Human FXR (NR1H4) Assay, potency ranges
pEC50: −log10 of the molar value.
# pEC50 per record follows

Use these answered entries as a reference point.
CC[C@H]1[C@@H](O)[C@@H]2[C@H](CC[C@]3(C)[C@@H]([C@H](C)CCOC(=O)NS(=O)(=O)c4ccc(C)cc4)CC[C@@H]23)[C@@]2(C)CC[C@@H](O)C[C@@H]12 : > 7.00
CC[C@H]1[C@@H](O)[C@@H]2[C@H](CC[C@]3(C)[C@@H]([C@H](C)CCOC(=O)NCCCN4CCOCC4)CC[C@@H]23)[C@@]2(C)CC[C@@H](O)C[C@@H]12 : 6.00 to 7.00
CC[C@H]1[C@@H](O)[C@@H]2[C@H](CC[C@]3(C)[C@@H]([C@H](C)CCOC(=O)N4CCCS4(=O)=O)CC[C@@H]23)[C@@]2(C)CC[C@@H](O)C[C@@H]12 : 6.00 to 7.00

Record for `CC[C@H]1[C@@H](O)[C@@H]2[C@H](CC[C@]3(C)[C@@H]([C@H](C)CCOC(=O)N4CCc5sccc5C4)CC[C@@H]23)[C@@]2(C)CC[C@@H](O)C[C@@H]12` under target or system human FXR (NR1H4) (Homo sapiens (Human), UniProt Q96RI1): pEC50 reported as 6.00 to 7.00

GET /values?item= `CC[C@H]1[C@@H](O)[C@@H]2[C@H](CC[C@]3(C)[C@@H]([C@H](C)CCCOC(=O)N4CCOCC4)CC[C@@H]23)[C@@]2(C)CC[C@@H](O)C[C@@H]12` &system= human FXR (NR1H4) (Homo sapiens (Human), UniProt Q96RI1) returns pEC50: 5.00 to 6.00
